# procedure_text: RP-HPLC retention on XTerra RP18, methanol/buffer; extrapolated retention factor log kw and slope S
# Assay type: physicochemical
# measurement_conditions: pH 4.4; intercept, extrapolated to 100 % buffer; methanol/buffer, 25 °C
Where a name gives a salt, the structure may show the parent alone.
Listed below: log kw values for each entry.
Give only the figure.

Return reported log kw; argument: c1ccc2c(c1)OCC(C1=NCCN1)O2 (stereo not shown) [Idazoxan, idazoxan hydrochloride] 0.82

More entries:
Return reported log kw; argument: `Cc1cc2c(s1)Nc1ccccc1N=C2N1CCN(C)CC1` 1.64

Return reported log kw; argument: COc1ccccc1OCCNCC(O)COc1cccc2[nH]c3ccccc3c12 (stereo not shown) 3.75

Return reported log kw; argument: CCOc1ccccc1OCCN[C@H](C)Cc1ccc(OC)c(S(N)(=O)=O)c1 [Tamsulosin, tamsulosin hydrochloride] 2.22

Return reported log kw; argument: N=C(N)NC(=O)Cc1c(Cl)cccc1Cl [Guanfacine, guanfacine hydrochloride] 1.73

Return reported log kw; argument: CC1Cc2ccccc2N1NC(=O)c1ccc(Cl)c(S(N)(=O)=O)c1 (stereo not shown) [Indapamide, indapamide] 2.69

----------
Listed below: log kw values for each entry.
# procedure_text: RP-HPLC retention on XTerra RP18, methanol/buffer; extrapolated retention factor log kw and slope S
# Format: physicochemical
# measurement_conditions: pH 4.4; intercept, extrapolated to 100 % buffer; methanol/buffer, 25 °C
Structures can show the parent of a compound that is named as a salt.

Use these answered entries as a reference point.
Return reported log kw; argument: Cc1cc(C(C)(C)C)cc(C)c1CC1=NCCN1 [Xylometazoline, xylometazoline hydrochloride] 2.61 ± 0.00

Return reported log kw; argument: Nc1nc(N)c2nc(-c3ccccc3)c(N)nc2n1 [Triamterene, triamterene] 1.75 ± 0.05

Return reported log kw; argument: Clc1cccc(Cl)c1N=C1NCCN1 [Clonidine, Clonidine hydrochloride] 0.82 ± 0.02

Could you now look at the following compound, please?
Return reported log kw; argument: COc1cc2nc(N3CCN(C(=O)C4COc5ccccc5O4)CC3)nc(N)c2cc1OC (stereo not shown) [Doxazosin, doxazosin mesilat] 3.42 ± 0.07
